Assay: Plasma pharmacokinetics of SN32976 and stable major metabolites in mice (30 mg/kg oral)
Conditions: mouse plasma, 30 mg/kg SN32976 oral gavage
outcome-measure: contribution to combined plasma AUC (%)
Number in %, nothing else.

Suppose we examine the compound `CNCCS(=O)(=O)N1CCN(c2nc(N3CCOCC3)nc(-n3c(C(F)F)nc4c(OC)cccc43)n2)CC1` ; what contribution to combined plasma AUC value has been reported?
27.1

Suppose we examine the compound `COc1cccc2c1nc(C(F)F)n2-c1nc(N2CCOCC2)nc(N2CCN(S(=O)(=O)CCN)CC2)n1` ; what contribution to combined plasma AUC value has been reported?
0.13

Suppose we examine the compound `C=CS(=O)(=O)N1CCN(c2nc(N3CCOCC3)nc(-n3c(C(F)F)nc4c(OC)cccc43)n2)CC1` ; what contribution to combined plasma AUC value has been reported?
1.0

Suppose we examine the compound `COc1cccc2c1nc(C(F)F)n2-c1nc(N2CCOCC2)nc(N2CCN(S(=O)(=O)CCN(C)C)CC2)n1` ; what contribution to combined plasma AUC value has been reported?
71.8

----------
Target: panel of 442 kinases (Homo sapiens, UniProt P51817)
Construct: purchased Ambit Biosciences (scanMAXX KINOMEscan)
Sequence (P51817 1-358): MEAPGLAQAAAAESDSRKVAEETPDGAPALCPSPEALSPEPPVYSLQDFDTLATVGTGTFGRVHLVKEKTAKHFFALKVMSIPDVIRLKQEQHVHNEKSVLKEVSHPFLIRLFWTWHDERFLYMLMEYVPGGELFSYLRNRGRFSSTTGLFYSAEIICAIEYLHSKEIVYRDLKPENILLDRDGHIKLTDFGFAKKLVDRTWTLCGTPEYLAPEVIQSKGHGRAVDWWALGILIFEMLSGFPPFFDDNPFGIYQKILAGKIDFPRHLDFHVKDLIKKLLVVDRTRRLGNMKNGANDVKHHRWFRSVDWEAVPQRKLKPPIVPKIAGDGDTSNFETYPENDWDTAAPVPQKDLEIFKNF
Experiment: biochemical
Type: binding
Conditions: kinase PRKX; 1 µM; read-out: PRKX (% of control at 1 µM)
outcome-measure: remaining activity at 1 µM (%)
Number in %, nothing else.

Suppose we examine the molecule Nc1cc(C(F)(F)F)c(-c2cc(N3CCOCC3)nc(N3CCOCC3)n2)cn1 [Buparlisib] ; what remaining activity at 1 µM value has been reported?
100

Suppose we examine the molecule FC(F)c1nc2ccccc2n1-c1nc(N2CCOCC2)nc(N2CCOCC2)n1 [ZSTK474] ; what remaining activity at 1 µM value has been reported?
100

Suppose we examine the molecule Cn1c(=O)n(-c2ccc(C(C)(C)C#N)cc2)c2c3cc(-c4cnc5ccccc5c4)ccc3ncc21 [Dactolisib] ; what remaining activity at 1 µM value has been reported?
77

Suppose we examine the molecule COc1ncc(-c2ccc3nccc(-c4ccnnc4)c3c2)cc1NS(=O)(=O)c1ccc(F)cc1F [Omipalisib] ; what remaining activity at 1 µM value has been reported?
100

----------
Biological target: panel of 442 kinases (Homo sapiens)
Construct: purchased Ambit Biosciences (scanMAXX KINOMEscan)
Assay: biochemical
Assay type: binding
Conditions: kinase HCK; 1 µM; read-out: % of control at 1 µM
Would you kindly list remaining activity at 1 µM for each of these compounds?

Suppose we examine the compound `Cn1c(=O)n(-c2ccc(C(C)(C)C#N)cc2)c2c3cc(-c4cnc5ccccc5c4)ccc3ncc21` ; what remaining activity at 1 µM value has been reported?
94%

Suppose we examine the compound `COc1ncc(-c2ccc3nccc(-c4ccnnc4)c3c2)cc1NS(=O)(=O)c1ccc(F)cc1F` ; what remaining activity at 1 µM value has been reported?
100%

Suppose we examine the compound `Nc1cc(C(F)(F)F)c(-c2cc(N3CCOCC3)nc(N3CCOCC3)n2)cn1` ; what remaining activity at 1 µM value has been reported?
100%

Suppose we examine the compound `FC(F)c1nc2ccccc2n1-c1nc(N2CCOCC2)nc(N2CCOCC2)n1` ; what remaining activity at 1 µM value has been reported?
100%
